ALK5 (aa162-503) (Homo sapiens (Human)) measurements of pIC50, listed per entry.
Sequence (P36897 162-503): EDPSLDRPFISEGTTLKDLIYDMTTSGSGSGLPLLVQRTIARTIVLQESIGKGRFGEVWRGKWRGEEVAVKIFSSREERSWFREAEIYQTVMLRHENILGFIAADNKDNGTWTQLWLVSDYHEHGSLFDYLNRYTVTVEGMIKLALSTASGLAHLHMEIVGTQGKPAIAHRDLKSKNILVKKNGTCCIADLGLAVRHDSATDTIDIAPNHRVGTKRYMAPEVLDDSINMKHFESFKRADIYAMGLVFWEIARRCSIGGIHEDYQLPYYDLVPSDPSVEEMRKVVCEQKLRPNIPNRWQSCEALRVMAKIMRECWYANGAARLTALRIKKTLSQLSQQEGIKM
Answer as the number alone; pIC50 is minus log10 of concentration in mol/L.

Solved cases (3 shown):
{"columns": ["compound", "pIC50"],
 "data": [
  ["CC(C)n1cc(-c2cncc(-c3ccc4c(c3)CS(=O)(=O)N4CC3CCC3)c2)ccc1=O", 5.57],
  ["CC(C)n1cc(-c2cncc(-c3cc(F)c4c(c3)CC(=O)N4C)c2)ccc1=O", 5.03],
  ["CC(C)n1cc(-c2cncc(-c3ccc4c(c3)CC(=O)N4)c2)ccc1=O", 5.47]
]}

Now for a further compound.
The compound listed as CC(C)n1cc(-c2cncc(-c3ccc4c(c3)CC(=O)N4CCCO)c2)ccc1=O has a reported pIC50 of 5.38
